Cited source for all entries: the NIST ThermoML archive (doi:10.1021/je800754w)

experiment: activity coefficient (dimensionless); of the first substance listed, at infinite dilution; xn = mol fraction of the nth substance listed; conditions: 302.45 K; Liquid; Chromatography; x1 = 0
observable: activity coefficient
Give your answer as a number; write no unit.

Q: Reported activity coefficient, compound CC1CCCCC1 [methylcyclohexane] + CCCCCCCCCCCCCC[P+](CCCCCC)(CCCCCC)CCCCCC.O=S(=O)([N-]S(=O)(=O)C(F)(F)F)C(F)(F)F : ____
A: 0.92

Q: Lookup CCC=O [propanal] + CCCCCCCCCCCCCC[P+](CCCCCC)(CCCCCC)CCCCCC.O=S(=O)([N-]S(=O)(=O)C(F)(F)F)C(F)(F)F
A: 0.35

Q: Lookup CCCC(C)=O [pentan-2-one] + CCCCCCCCCCCCCC[P+](CCCCCC)(CCCCCC)CCCCCC.O=S(=O)([N-]S(=O)(=O)C(F)(F)F)C(F)(F)F
A: 0.31

Q: Lookup CC(C)CO [2-methyl-1-propanol] + CCCCCCCCCCCCCC[P+](CCCCCC)(CCCCCC)CCCCCC.O=S(=O)([N-]S(=O)(=O)C(F)(F)F)C(F)(F)F
A: 1.49

Q: Lookup C=CCCCC [hex-1-ene] + CCCCCCCCCCCCCC[P+](CCCCCC)(CCCCCC)CCCCCC.O=S(=O)([N-]S(=O)(=O)C(F)(F)F)C(F)(F)F
A: 0.91

Q: Lookup CCCCCCCCCCC [undecane] + CCCCCCCCCCCCCC[P+](CCCCCC)(CCCCCC)CCCCCC.O=S(=O)([N-]S(=O)(=O)C(F)(F)F)C(F)(F)F
A: 2.32

Q: Lookup CCc1ccccc1 [ethylbenzene] + CCCCCCCCCCCCCC[P+](CCCCCC)(CCCCCC)CCCCCC.O=S(=O)([N-]S(=O)(=O)C(F)(F)F)C(F)(F)F
A: 0.54

Q: Lookup Cc1ccccc1 [toluene] + CCCCCCCCCCCCCC[P+](CCCCCC)(CCCCCC)CCCCCC.O=S(=O)([N-]S(=O)(=O)C(F)(F)F)C(F)(F)F
A: 0.46

Q: Lookup c1ccccc1 [benzene] + CCCCCCCCCCCCCC[P+](CCCCCC)(CCCCCC)CCCCCC.O=S(=O)([N-]S(=O)(=O)C(F)(F)F)C(F)(F)F
A: 0.39

Q: Lookup CCCC=O [butanal] + CCCCCCCCCCCCCC[P+](CCCCCC)(CCCCCC)CCCCCC.O=S(=O)([N-]S(=O)(=O)C(F)(F)F)C(F)(F)F
A: 0.38

Q: Lookup CCO [ethanol] + CCCCCCCCCCCCCC[P+](CCCCCC)(CCCCCC)CCCCCC.O=S(=O)([N-]S(=O)(=O)C(F)(F)F)C(F)(F)F
A: 1.56
